Cited source for all entries: patent US20240309087A1

Answer each item with its documented IC50.
# targetOrSystem: T1, hCD112R mFC recombinant protein (human; murine, UniProt Q6DKI7 41-160)
# T1 construct: range 41-160; expressed in 293E cells; also called hCD112R ECD mFC; hCD112R-ECD-mFC; not shown: murine IgG2a Fc domain (MX2-mFc vector)
# T1 sequence (looked up): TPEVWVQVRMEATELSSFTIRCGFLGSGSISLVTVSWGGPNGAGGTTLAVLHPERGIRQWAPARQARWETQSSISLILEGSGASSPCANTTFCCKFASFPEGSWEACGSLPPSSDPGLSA
# testProtocol: FACS competition, hCD112R mFc on CHO CD112 cells
Express your answer in µg/mL, writing the number without its unit.

Fill blank: measured IC50 of the binder Hu54 (antibody, IgG4, V domains shown, humanized IgG4) VH: EVQLVESGGGLVKPGGSLRLSCAASGFTFSSYHMSWVRQAPGKGLELVSAINSNGINTYYLDTVKGRFTISRDNAKNSLYLQMNSLRAEDTAVYYCARHEDYYGFAMDYWGQGTLVTVSS VL: EIVMTQSPPTLSLSPGERVTLSCKASQSVSNDVAWYQQKPGQAPRLLIYYVSNRFTGIPARFSGSGSGTDFTLTISSLQPEDFAVYFCQQAYRSPWTFGQGTKLEIK is ____.
3.25

Fill blank: measured IC50 of the binder Hu17 (antibody, IgG4, V domains shown, humanized IgG4) VH: EVQLVESGGGLVKPGGSLRLSCAASGFTFSSYHMSWVRQAPGKGLELVSAISRDGDSTYYPDTVKGRFTISRDNAKNSLYLQMNSLRAEDTAVYYCSRHEDYFGFAMDSWGQGTLVTVSS VL: DIQMTQSPSSLSASVGDRVTITCKASQSVSNDVAWYQQKPGKAPKLLIYYVSNRFTGVPSRFSGSGSGTDFTLTISSLQPEDFATYFCQQAYRSPWTFGQGTKLEIK is ____.
2.12
